test system: Staphylococcus aureus; assay: Antibacterial activity against Staphylococcus aureus; format: functional
Reported MIC values are given for each entry in this list.

A selection of reference data follows.
| Smiles | Result |
| --- | --- |
| O=Nc1c(C(F)(F)F)n[nH]c1-c1ccccc1 | 31.2 mg/L |
| Cl.Cn1nc(C(F)(F)F)c(N)c1-c1ccccc1 | > 250 mg/L |
| Cc1ccc(-c2c(N)c(C(F)(F)F)nn2-c2ccc(S(N)(=O)=O)cc2)cc1.Cl | > 250 mg/L |

// MIC lookup, compound = CS(=O)(=O)c1ccc(-n2nc(C(F)(F)F)c(N=O)c2-c2ccccc2)cc1 , result: > 250 mg/L

Note to self: MIC recorded for Cl.Nc1c(C(F)(F)F)n[nH]c1-c1ccccc1 was > 250 mg/L

From: ChEMBL document CHEMBL4765448
